This collection of values is drawn from patent US20180208678A1.

Target: BgaD-D, smallest isozyme of the β-galactosidase from B. circulans ATCC 31382 (Biolacta) (Bacillus circulans ATCC 31382)
Experiment: Kd table; method not given
Could you please report measured pKd for the items listed next?
Give bare numbers, as −log10 of the molar value.

[
  {
    "BINDER": "Mb(BgaD_L01) (designed binder) VSSVPTKLEVVAATPTSLLISWDAMDHTPYVYYYRITYGETGGNSPVQEFTVPGYYSTATISGLKPGVDYTITVYAGDLSWNFDFYSPISINYRT",
    "pKd": 6.79
  }
]

Now for a further binder.
Req: Quote pKd reported for Mb(BgaD_S10) (designed binder) VSSVPTKLEVVAATPTSLLISWDAPAVTVVFYLITYGETGASSWPGYQEFTVPGSKSTATISGLKPGVDYTITVYAQYPWDTGSPISINYRT please.
Resp: 7.82
